These data points were gathered from BigSolDB 2.1.

# study-conditions: in isopropanol, 288.15 K

compound-structure	solubility (mole fraction)
CO[C@@]1(NC(=O)Cc2cccs2)C(=O)N2C(C(=O)O)=C(COC(N)=O)CS[C@@H]21	0.000109

----------
# study-conditions: in isopropanol, 293.15 K

compound-structure	solubility (mole fraction)
CO[C@@]1(NC(=O)Cc2cccs2)C(=O)N2C(C(=O)O)=C(COC(N)=O)CS[C@@H]21	0.000151

----------
# study-conditions: in methanol, 303.15 K

compound-structure	solubility (mole fraction)
CO[C@@]1(NC(=O)Cc2cccs2)C(=O)N2C(C(=O)O)=C(COC(N)=O)CS[C@@H]21	0.0129
